target: ROCK2 (Homo sapiens); test: Direct filter-binding radiometric kinase assay (Eurofins) at Km ATP; assay type: biochemical; set-up: purchased Eurofins Testing (Dundee, Scotland, UK); conditions: ATP at Km, 15 μM; * = higher purity BA-1076
Sequence (O75116 whole entry): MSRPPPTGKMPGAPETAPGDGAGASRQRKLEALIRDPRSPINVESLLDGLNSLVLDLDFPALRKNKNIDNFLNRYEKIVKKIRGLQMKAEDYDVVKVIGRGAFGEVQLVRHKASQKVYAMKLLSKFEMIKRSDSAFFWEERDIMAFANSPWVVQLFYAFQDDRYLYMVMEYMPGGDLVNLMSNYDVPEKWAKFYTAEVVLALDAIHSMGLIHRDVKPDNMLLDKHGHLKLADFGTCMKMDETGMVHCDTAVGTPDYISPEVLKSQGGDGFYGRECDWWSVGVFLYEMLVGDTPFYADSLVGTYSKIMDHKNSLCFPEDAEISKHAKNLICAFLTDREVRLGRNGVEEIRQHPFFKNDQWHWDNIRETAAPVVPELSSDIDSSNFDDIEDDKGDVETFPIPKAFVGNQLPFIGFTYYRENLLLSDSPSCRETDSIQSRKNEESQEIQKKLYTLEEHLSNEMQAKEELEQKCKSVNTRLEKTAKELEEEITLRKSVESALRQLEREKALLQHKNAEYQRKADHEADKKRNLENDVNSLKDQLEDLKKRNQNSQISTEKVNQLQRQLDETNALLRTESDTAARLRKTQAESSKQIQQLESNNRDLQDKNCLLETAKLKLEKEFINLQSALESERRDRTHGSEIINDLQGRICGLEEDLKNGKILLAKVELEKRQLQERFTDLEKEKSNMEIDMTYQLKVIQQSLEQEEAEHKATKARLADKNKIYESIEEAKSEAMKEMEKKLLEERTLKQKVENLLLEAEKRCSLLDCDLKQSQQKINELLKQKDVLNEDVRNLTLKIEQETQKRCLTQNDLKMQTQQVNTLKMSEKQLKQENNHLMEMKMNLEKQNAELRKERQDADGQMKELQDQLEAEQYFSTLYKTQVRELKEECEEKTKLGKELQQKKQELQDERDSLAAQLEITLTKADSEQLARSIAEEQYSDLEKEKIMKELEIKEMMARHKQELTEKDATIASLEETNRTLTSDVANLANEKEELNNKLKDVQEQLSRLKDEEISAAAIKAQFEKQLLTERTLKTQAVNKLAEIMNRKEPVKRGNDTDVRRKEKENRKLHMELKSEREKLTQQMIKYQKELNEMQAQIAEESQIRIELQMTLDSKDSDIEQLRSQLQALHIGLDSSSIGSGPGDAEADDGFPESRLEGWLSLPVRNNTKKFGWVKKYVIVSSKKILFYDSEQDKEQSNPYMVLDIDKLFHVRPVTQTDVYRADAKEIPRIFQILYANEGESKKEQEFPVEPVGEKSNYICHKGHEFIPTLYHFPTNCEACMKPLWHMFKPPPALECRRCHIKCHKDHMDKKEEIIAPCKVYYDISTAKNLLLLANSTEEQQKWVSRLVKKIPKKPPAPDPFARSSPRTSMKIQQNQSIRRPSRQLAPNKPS
MEASURED_ATTRIBUTE: IC50

>>> df
                            compound_string  assay_result
0  C[C@@H](N)C1CCN(S(=O)(=O)c2cccc3cnccc23)CC1        599 nM

====

biological target: PKC ε (Homo sapiens, UniProt Q02156); construct: are incubated with DNA-tagged kinase domains tagged; DNA tag; purchased DiscoverX; test: DiscoverX kinome screen; format: binding; conditions: 10,000 nM API
Sequence (Q02156 408-668 limits assumed): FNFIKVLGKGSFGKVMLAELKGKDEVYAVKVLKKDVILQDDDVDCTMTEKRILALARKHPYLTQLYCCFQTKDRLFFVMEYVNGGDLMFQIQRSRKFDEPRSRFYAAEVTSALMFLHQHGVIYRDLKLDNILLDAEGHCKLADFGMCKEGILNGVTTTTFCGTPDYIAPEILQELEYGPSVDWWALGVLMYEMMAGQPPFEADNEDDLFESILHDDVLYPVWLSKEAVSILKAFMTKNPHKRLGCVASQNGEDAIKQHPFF
Listed below: Kinome Screen % inhibition PKC ε values for each entry.
MEASURED_ATTRIBUTE: Kinome Screen % inhibition PKC ε

>>> df
                            compound_string                measured_attribute  assay_result
0  C[C@H](N)C1CCN(S(=O)(=O)c2cccc3c(=O)[nH]ccc23)CC1  Kinome Screen % inhibition PKC ε          <70%
1  C[C@@H](N)C1CCN(S(=O)(=O)c2cccc3c(=O)[nH]ccc23)CC1  Kinome Screen % inhibition PKC ε         94.7%
2  C[C@H](N)C1CCN(S(=O)(=O)c2cccc3cnccc23)CC1  Kinome Screen % inhibition PKC ε           86%
3  C[C@@H](N)C1CCN(S(=O)(=O)c2cccc3cnccc23)CC1  Kinome Screen % inhibition PKC ε           95%

The origin of these recorded values is patent US10537567B2.
